- Measurement Description: Tanguay_ZF_120hpf_SWIM_legacy: (Legacy) Oregon State University Tanguay Lab 120 Hour Post-fertilization zebrafish Assay for Swim Bladder Malformation (AID 2283654);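 note: swim bladder malformation in each larva scored yes or no under brightfield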
Results filed as inconclusive are left out. Calls of active or inactive are those of the source. Rule for the calls: active = hit-call score of the fitted dose curve at least 0.9, where 1 is the maximum; inconclusive = response in the unintended direction; inactive = score below 0.9.
Parameter: AC50

| Compound | Reported Value |
| --- | --- |
| COc1ccc(C(=O)Nc2nc3ccccc3c(NCc3ccccc3)c2C#N)cc1 | inactive |
| CC(C)(C)c1ccccc1 | inactive |
| N[C@@H](Cc1c[nH]c2ccccc12)C(=O)O | inactive |
| CCC(C)N(C)C(=O)c1cc2ccccc2c(-c2ccccc2Cl)n1 (stereo not drawn) | 18.5 µM (active) |
| Oc1ccccc1O | inactive |
| Cc1cc(Cc2ccc(N)c(C)c2)ccc1N | inactive |
| C=CCCCCCCCCCCCC | inactive |
| CCCCC(CC)COP(=O)(OCC(CC)CCCC)OCC(CC)CCCC (stereo not drawn) | inactive |
| CSc1ccc(Oc2ccc(S(N)(=O)=O)cc2CN(C)C)cc1C | inactive |
| CCCCC(CC)COC(=O)CCCCCCCC(=O)OCC(CC)CCCC (stereo not drawn) | inactive |
| CCCCCCCC(=O)OC | inactive |
| Nc1nc(=S)c2[nH]cnc2[nH]1 | inactive |
| COC(=O)CCCC(=O)OC | inactive |
| CC(=O)CC(c1ccccc1)c1c(O)c2ccccc2oc1=O (stereo not drawn) | inactive |
| COc1ccc(OC(F)(F)F)cc1CN[C@H]1CCCN[C@H]1c1ccccc1 | inactive |
| CN(C)CCCN1c2ccccc2Sc2ccc(Cl)cc21 | inactive |
| CCCCOC(=O)CCCCC(=O)OCCCC | inactive |
| O=C1O[C@H]([C@H](O)CO)C(O)=C1O | inactive |
| CC1(C)C(=O)NC(=O)N1CO | inactive |
| CCCCc1nc2cccnc2n1Cc1ccc(-c2ccccc2-c2nnn[nH]2)cc1 | inactive |
| O=C1NC(=O)C(c2ccccc2)(c2ccccc2)N1 | inactive |
| Cc1occc(=O)c1O | inactive |
| CC(=O)OC1CC(C)OC(C)O1 (stereo not drawn) | inactive |
| CCCCCCC(CCCCCCCCCCC(=O)OCC(COC(C)=O)OC(C)=O)OC(C)=O (stereo not drawn) | inactive |
| CCCCC(CC)CO (stereo not drawn) | inactive |
| S=c1[nH]c2ccccc2s1 | inactive |
| Cc1c(C)c2c(c(C)c1O)CCC(C)(COc1ccc(CC3SC(=O)NC3=O)cc1)O2 (stereo not drawn) | inactive |
| O=C1CCCCC1 | inactive |
